# target-under-test: T1, HLA-B07:02 (human)
# T1 construct: Stability assay: E. coli-expressed biotinylated heavy chain with 125I-labelled b2m; MS: BAP-tagged HLA in HEK293T cells; Treated as one molecule
# test-method-notes: pMHC-I dissociation, 125I-b2m, 37C; experiment 2
measurement-label: half-life (h)

KPKRDGYMF :: 9

I = KPKRDGYMFL
II = GPPARVPAV
Given the listed items, does I or II have the lesser reported half-life? Selection: enter the item's label.
II
(II: 1.8 h, I: 3.3 h)

a = MFATLQRSSL
b = FATLQRSSL
Which of the two gives a bigger number for half-life: a or b ? Selection: enter the item's label.
b

The reported numbers originate from patent US20210275657A1.
